FYI, the data here is from ChEMBL document CHEMBL1201862.

Test system: SF-268
protocolNotes: NCI tumour cell line growth inhibition, 48 h
Activity calls are given as the source filed them. No stated cut-off is given here; in the data, active = GI50 up to about 1.1 µM and inactive = higher.
// one of active, inactive, no free text

Challenge: Hi, do you know how "C=C(C)[C@H]1C[C@@H]2O[C@@](O)(/C(C)=C\C(=O)/C=C(/C)C[C@H]3OC(=O)[C@@]24O[C@H]34)[C@@H]1O" came out in this test?
Response given: inactive

Challenge: Hi, do you know how "O=S(=O)(c1cc(Cl)ccc1Cl)n1ccnc1" came out in this test?
Response given: inactive

Challenge: Hi, do you know how "COc1ccc(/C=C2/C(C)=NN(c3cccc(Cl)c3)/C2=N/c2nc3ccccc3s2)cc1" came out in this test?
Response given: inactive

Challenge: Hi, do you know how "COc1cc(OC)cc(-n2c(N)c(C#N)c3ccc([N+](=O)[O-])cc3c2=O)c1" came out in this test?
Response given: inactive

Challenge: Hi, do you know how "COc1ccc(Nc2n[nH]c(NS(=O)(=O)c3cc(C)c(Cl)cc3S)n2)cc1" came out in this test?
Response given: inactive

Challenge: Hi, do you know how "O=C(Nc1ccccc1)N1CCNC1=S" came out in this test?
Response given: inactive

Challenge: Hi, do you know how "CN1CCc2[nH]nc(-c3n[nH]c4c3CN(C)CC4)c2C1" came out in this test?
Response given: inactive

Challenge: Hi, do you know how "O=Cc1ccccc1B(O)O" came out in this test?
Response given: inactive

Challenge: Hi, do you know how COc1ccc2c(c1)CCN1CCc3cc(OC)c(OC)cc3CC21 (configuration not stated) came out in this test?
Response given: inactive

Challenge: Hi, do you know how "CCOP(=O)(O)C(C)(C)NC" came out in this test?
Response given: inactive

Challenge: Hi, do you know how CC1CCC2(OC1)OC1CC3C4CC=C5CC(OC6OC(CO)C(OC7OC(C)C(OC8OC(C)C(O)C(O)C8O)C(O)C7O)C(O)C6OC6OC(C)C(O)C(O)C6O)CCC5(C)C4CCC3(C)C1C2C (configuration not stated) came out in this test?
Response given: active

Challenge: Hi, do you know how "COc1cc(OC)c(C2(c3c(OC(C)C)c(=O)c3=O)SCCCS2)cc1OC" came out in this test?
Response given: inactive

Challenge: Hi, do you know how O=C(c1ccccc1)C1N=NCC1c1ccc([N+](=O)[O-])cc1 (configuration not stated) came out in this test?
Response given: inactive

Challenge: Hi, do you know how NC(=O)SCCC(N)C(=O)O (configuration not stated) came out in this test?
Response given: inactive

Challenge: Hi, do you know how "O=[N+]([O-])c1cc2ccc1OCc1cccc(n1)COc1ccc(cc1[N+](=O)[O-])/C=N\CCCCCCCC/N=C\2" came out in this test?
Response given: inactive

Challenge: Hi, do you know how CC(C)(C)[Si](C)(C)OCC1OC(n2cc(I)c(N)nc2=O)C(O[Si](C)(C)C(C)(C)C)C1O[Si](C)(C)C(C)(C)C (configuration not stated) came out in this test?
Response given: inactive

Challenge: Hi, do you know how "CCCCc1c(OC)cc(O)c2c1C(=O)c1[nH]c(C(=O)O)c(O)c(=O)c1C2=O" came out in this test?
Response given: inactive

Challenge: Hi, do you know how "c1ccc(CN2CCC(Nc3ccccc3)(c3nnnn3Cc3ccccc3)CC2)cc1" came out in this test?
Response given: inactive

Challenge: Hi, do you know how "O=S(=O)(O)c1cc(S(=O)(=O)O)c2cc(/N=N/c3ccc(/N=N/c4ccc(/C=C/c5ccc(/N=[N+](/[O-])c6ccc(/C=C/c7ccc(/N=N/c8ccc(/N=N/c9ccc%10cc(S(=O)(=O)O)cc(S(=O)(=O)O)c%10c9)cc8)cc7S(=O)(=O)O)c(S(=O)(=O)O)c6)cc5S(=O)(=O)O)c(S(=O)(=O)O)c4)cc3)ccc2c1" came out in this test?
Response given: inactive

Challenge: Hi, do you know how COc1ccc(C(CC2(c3ccc(OC)cc3)SCCCS2)NC(C)=O)cc1 (configuration not stated) came out in this test?
Response given: inactive

Challenge: Hi, do you know how "CON(C(=O)OC(C)(C)C)c1ccccc1" came out in this test?
Response given: inactive

Challenge: Hi, do you know how "O=C1Nc2cc(F)ccc2C1=O" came out in this test?
Response given: inactive

###

Test system: OVCAR-3
protocolNotes: NCI tumour cell line growth inhibition, 48 h
The source made the active and inactive calls. Rule as the data show it: active = GI50 up to about 1.1 µM and inactive = higher.
For each record, write down the corresponding GI50.

Challenge: Tell me the measured GI50 of "CCCCNC(=S)Nc1nc(C(=O)NNS(=O)(=O)c2ccccc2)cs1" , please.
Response given: 24.2 µM (inactive)

Challenge: Tell me the measured GI50 of "CCCCCC(O)(CCCCC)CCCCCCCCC1=C(O)C(=O)c2ccc(=O)[nH]c2C1=O" , please.
Response given: 4.23 µM (inactive)

Challenge: Tell me the measured GI50 of "O=S(=O)(c1cc(Cl)ccc1Cl)n1ccnc1" , please.
Response given: 46.9 µM (inactive)

Challenge: Tell me the measured GI50 of CC12CC3CC/C(=N\O)C(C1)C3(N1CCOCC1)C/C2=N/O (centres undefined) , please.
Response given: > 100 µM (inactive)

Challenge: Tell me the measured GI50 of "CCCCCCN(N)C(=O)CC#N" , please.
Response given: 79.1 µM (inactive)

Challenge: Tell me the measured GI50 of "N#Cc1nc(-c2cccnc2)oc1N" , please.
Response given: > 100 µM (inactive)

Challenge: Tell me the measured GI50 of "COc1cc(-c2nc(N)c(C#N)c3c2CCS(=O)(=O)c2ccc(C)cc2-3)cc(OC)c1OC" , please.
Response given: > 100 µM (inactive)

Challenge: Tell me the measured GI50 of "OCCOCCN1CCN(CCCN2c3ccccc3Sc3ccc(C(F)(F)F)cc32)CC1" , please.
Response given: 17.7 µM (inactive)

Challenge: Tell me the measured GI50 of COC(=O)C1=COC(OC2OC(CO)C(O)C(O)C2O)C2C3CN4CCc5c([nH]c6ccccc56)C4(CC12)O3 (centres undefined) , please.
Response given: > 100 µM (inactive)

Challenge: Tell me the measured GI50 of "c1ccc2c(c1)nc1n2CNC1" , please.
Response given: > 100 µM (inactive)

Challenge: Tell me the measured GI50 of "O=C(C=P(c1ccccc1)(c1ccccc1)c1ccccc1)c1ccc(-c2cccc([N+](=O)[O-])c2)s1" , please.
Response given: 32.7 µM (inactive)

Challenge: Tell me the measured GI50 of "CCOP(=O)(OCC)/C(C#N)=C/c1cn(C)cn1" , please.
Response given: > 100 µM (inactive)

Challenge: Tell me the measured GI50 of CC1(O)C2(c3ccccc3)CCC[N+]1(C)CC2 (centres undefined) , please.
Response given: > 100 µM (inactive)

Challenge: Tell me the measured GI50 of COc1cc(C2C3=C(NC(=O)C2C#N)c2ccc4ccccc4c2OCC3)cc(OC)c1OC (centres undefined) , please.
Response given: 45 µM (inactive)

###

Tested on: NCI-H226
protocolNotes: NCI tumour cell line growth inhibition, 48 h
Active and inactive are the calls of the source. No stated cut-off is given here; in the data, active = GI50 up to about 1.1 µM and inactive = higher.
// one of active, inactive, no free text

Challenge: Hi, do you know how "N#Cc1nc(COCCOCc2ccccc2)oc1N" came out in this test?
Response given: inactive

Challenge: Hi, do you know how "Cc1ccnc(NS(=O)(=O)c2ccc(NC(=O)c3ccc4nc5ccccc5c(Nc5ccc(S(=O)(=O)Nc6nccc(C)n6)cc5)c4c3)cc2)n1" came out in this test?
Response given: inactive

Challenge: Hi, do you know how CSc1ncnc2c1ncn2C1CC(Oc2ccc(C)cc2)C(COc2ccc(C)cc2)O1 (configuration not stated) came out in this test?
Response given: inactive

Challenge: Hi, do you know how "Cc1cc(C#N)c(Nc2ccccc2[N+](=O)[O-])s1" came out in this test?
Response given: inactive

Challenge: Hi, do you know how O=C1CC(c2cccc(Cl)c2)Nc2ccc(N3CCCC3)cc21 (configuration not stated) came out in this test?
Response given: active

Challenge: Hi, do you know how "CN(C)c1ccc(/C=N/Nc2nc3ccccc3c(=O)n2-c2ccccc2)cc1" came out in this test?
Response given: inactive

Challenge: Hi, do you know how CCOc1ccc(/N=N/C2C(=O)N(C(=O)CC(=O)Nc3ccccc3OC)N=C2C)cc1 (configuration not stated) came out in this test?
Response given: inactive

Challenge: Hi, do you know how O=C(O)CCC1c2[nH]c3ccccc3c2CCN1Cc1ccccc1 (configuration not stated) came out in this test?
Response given: inactive

Challenge: Hi, do you know how C=C(C)[C@@H]1CCC2=C(CC[C@]3(C)[C@@H]([C@@H](CCC=C(C)C)C(=O)O)[C@H](O)C[C@@]23C)[C@@]1(C)CCC(=O)O [PORICOIC ACID G] came out in this test?
Response given: inactive

Challenge: Hi, do you know how O=C(C1OC1c1ccc(Cl)cc1)C12CC3CC(CC(C3)C1)C2 (configuration not stated) came out in this test?
Response given: inactive

Challenge: Hi, do you know how COc1cc(/C=C2/SC(c3ccccc3)N(c3cccc(NC(C)=O)c3)C2=O)cc(OC)c1OC (configuration not stated) came out in this test?
Response given: inactive

Challenge: Hi, do you know how "CCc1ccc(CCN2CCCCC2)nc1" came out in this test?
Response given: inactive

Challenge: Hi, do you know how "COc1cc(/C=C\c2ccc(Cl)cc2)cc(OC)c1OC" came out in this test?
Response given: active

Challenge: Hi, do you know how NC(=O)SCCC(N)C(=O)O (configuration not stated) came out in this test?
Response given: inactive

Challenge: Hi, do you know how "CC1=C(C)C(=O)C(C2=CC(=O)C=CC2=O)=C(C2=CC(=O)C=CC2=O)C1=O" came out in this test?
Response given: inactive

Challenge: Hi, do you know how "O=C(CCCN1CCC2(CC1)CC(=O)N(N1CCOCC1)C2=O)c1ccc(F)cc1" came out in this test?
Response given: inactive

Challenge: Hi, do you know how "CC(C)(C)NNc1c([N+](=O)[O-])cnn(-c2ccccc2)c1=O" came out in this test?
Response given: inactive

Challenge: Hi, do you know how "Cc1cccc(NC(=S)NNC(=O)c2cc(-c3ccccc3)nc3ccccc23)c1" came out in this test?
Response given: inactive

Challenge: Hi, do you know how "OCSc1nn(CO)c(=S)s1" came out in this test?
Response given: inactive

Challenge: Hi, do you know how "Cc1cnc2c(c1)C(=O)N(c1ccc(Br)cc1)S2(=O)=O" came out in this test?
Response given: inactive

Challenge: Hi, do you know how CC1CCc2sc3nc4n(c(=O)c3c2C1)CC(C)S4 (configuration not stated) came out in this test?
Response given: inactive

Challenge: Hi, do you know how "O=c1c2cc(I)ccc2nc(Sc2ccc([N+](=O)[O-])cc2[N+](=O)[O-])n1Cc1ccccc1" came out in this test?
Response given: inactive

Challenge: Hi, do you know how "N#Cc1c(N)oc(-c2cccc([N+](=O)[O-])c2)c1C#N" came out in this test?
Response given: inactive

Challenge: Hi, do you know how O=C1c2ccccc2CC1C1(O)C(=O)Nc2ccccc21 (configuration not stated) came out in this test?
Response given: inactive

Challenge: Hi, do you know how "CCCCc1c(OC)cc(O)c2c1C(=O)c1[nH]c(C(=O)O)c(O)c(=O)c1C2=O" came out in this test?
Response given: inactive

Challenge: Hi, do you know how CC(C(=O)c1ccc(Cl)cc1)C1OC(=O)C(Cl)=C1Cl (configuration not stated) came out in this test?
Response given: inactive

Challenge: Hi, do you know how O=C(N/S(=N/S(=O)(=O)c1ccc(Br)cc1)C(Cl)(Cl)Cl)c1ccccc1 (configuration not stated) came out in this test?
Response given: inactive
